The following molecules are listed with their measured pIC50 values.
Tested on: HepG2
assay: Cytotoxicity against human HepG2 cells after 96 hrs
Type: functional, cell-based
conditionParameters: HepG2, 96 h
pIC50 here is simply -log10 of the concentration when that concentration is written in mol/L.

molecule="CC[C@@]1(O)C(=O)OCc2c1cc1n(c2=O)Cc2cc3ccccc3nc2-1 [CAMPTOTHECIN]" experimentalsystem=HepG2 endpointname=pIC50 endpointvalue=7.70

Find the measured pIC50 of CC(C)C(=O)c1c(O)c([C@H](C2=C(O)C(C)(C)C(=O)C(C)(C)C2=O)C(C)C)c(O)c([C@H](C2=C(O)C(C)(C)C(=O)C(C)(C)C2=O)C(C)C)c1O [MYRTUCOMMULONE A] and report it.
5.22

Find the measured pIC50 of COc1cc([C@@H]2c3cc4c(cc3[C@@H](O[C@@H]3O[C@@H]5CO[C@@H](C)O[C@H]5[C@H](O)[C@H]3O)[C@H]3COC(=O)[C@H]23)OCO4)cc(OC)c1O [ETOPOSIDE] and report it.
5.40

Find the measured pIC50 of CC(C)C(=O)c1c(O)c([C@H](C2=C(O)C(C)(C)C(=O)C(C)(C)C2=O)C(C)C)c2c3c1OC(C)(C)C[C@H]3[C@H]1C(C)(C)C(=O)C(C)(C)[C@@]1(O)O2 (relative stereo) and report it.
5.40
